- Tested on: MCF-7 breast cancer (+ve ER) cells
- experimental_details: MTT cytotoxicity assay, MCF-7
- Type: cell-based
- run_conditions: 48 h, mean ± SD of three experiments, NA = no or negligible activity in initial crystal violet screening
pIC50: −log10 of the molar value.
Let's look at some compounds and their measured pIC50.
quantity_measured: pIC50

> print(dat)
                                   compound  reported.value
1  N.N.[Cl][Pt][Cl] [Cisplatin, reference compound]            5.05
2  O=C1CC(c2ccc(Br)cc2)C(C(=O)Nc2ccccn2)(C(=O)Nc2ccccn2)C(c2ccc(Br)cc2)C1 (centres unmarked)            4.92
